Molecular target: Proto-oncogene tyrosine-protein kinase Src (Homo sapiens)
Experiment: Inhibition of recombinant full length human SRCN1 expressed in baculovirus expression system using tyrosine-2 peptide as substrate incubated for 60 mins in presence of ATP by Z'-LYTE assay
pIC50: −log10 of the molar value.
attribute-measured: pIC50

Briefly, pIC50 measured for "C[C@@H]1C[C@H]1C(=O)N1CCN(c2cnc(C#N)c(-c3cnn(C)c3)n2)C[C@H]1C" : < 4.00
